B1: C10orf62 (parent)
chain: RALEEVEMKLQKNFLTQRENTIAG

Variants of: B1
test: protein stability index of a GFP-peptide fusion (GPS, HEK-293T) (PSI 1-6); higher = more stable;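 also: lentivirally expressed fusions sorted by FACS into six bins by GFP to DsRed ratio, PSI derived from sequencing read proportions per bin multiplied by bin number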
condition.set: c terminus: a fixed tail appended
I'd be grateful if you could share measured protein stability index for these entries.
Numbers only.

Solved entries:
mutant_code=F14N endpoint_result=4.49
mutant_code=G24C endpoint_result=3.23
mutant_code=V6Y endpoint_result=4.03
mutant_code=T16M endpoint_result=3.23

I need protein stability index for every entry listed below, if you could help.
1. Q17G
2. F14D
3. Q17L
4. K9Y
5. V6K
6. A23T
7. E5S
8. R1F

Response given:
1. 3.73
2. 4.66
3. 3.03
4. 1.67
5. 4.43
6. 3.67
7. 3.51
8. 3.17
